# subject.of.test: UniProtKB Q99572
# assay.overview: P2X7 antagonism in human peripheral blood mononuclear cells (PBMCs), IL-1β release
# Type: cell-based
# setup.conditions: P2X7, Table 2 (additional runs), 10 μM compound, LPS 30 ng/ml + Bz-ATP 0.5 mM, read-out: PBMC 10 μM (% control)
Below, each entry is listed with its recorded remaining activity at 10 µM.
measurement.kind: remaining activity at 10 µM

O=C(c1cccc(C(F)(F)F)c1Cl)N1[C@@H]2CCC[C@H]1c1nnc(-c3cc(C(F)(F)F)ccn3)n1C2 (stereo in doubt) = -0.2%
O=C(c1cccc(C(F)(F)F)c1Cl)N1[C@@H]2CCC[C@H]1c1nnc(-c3ccc(F)cn3)n1C2 (stereo in doubt) = 3.6%
O=C(c1cccc(C(F)(F)F)c1Cl)N1[C@H]2CC[C@@H]1c1nnc(-c3ccccn3)n1C2 = -20%
Cc1cccc(-c2nnc3n2C[C@@H]2CCC[C@H]3N2C(=O)c2cccc(C(F)(F)F)c2Cl)n1 (stereo in doubt) = 8%
O=C(c1ccc(Cl)c(F)c1Cl)N1[C@@H]2CCC[C@H]1c1nnc(-c3ccccn3)n1C2 (stereo in doubt) = -2.3%
Cc1nc(-c2nnc3n2C[C@H]2CCC[C@@H]3N2C(=O)c2cccc(C(F)(F)F)c2Cl)ccc1F (stereo in doubt) = -13.8%

---

# subject.of.test: P2X7 (Homo sapiens (Human), UniProt Q99572)
# Sequence (Q99572 whole entry): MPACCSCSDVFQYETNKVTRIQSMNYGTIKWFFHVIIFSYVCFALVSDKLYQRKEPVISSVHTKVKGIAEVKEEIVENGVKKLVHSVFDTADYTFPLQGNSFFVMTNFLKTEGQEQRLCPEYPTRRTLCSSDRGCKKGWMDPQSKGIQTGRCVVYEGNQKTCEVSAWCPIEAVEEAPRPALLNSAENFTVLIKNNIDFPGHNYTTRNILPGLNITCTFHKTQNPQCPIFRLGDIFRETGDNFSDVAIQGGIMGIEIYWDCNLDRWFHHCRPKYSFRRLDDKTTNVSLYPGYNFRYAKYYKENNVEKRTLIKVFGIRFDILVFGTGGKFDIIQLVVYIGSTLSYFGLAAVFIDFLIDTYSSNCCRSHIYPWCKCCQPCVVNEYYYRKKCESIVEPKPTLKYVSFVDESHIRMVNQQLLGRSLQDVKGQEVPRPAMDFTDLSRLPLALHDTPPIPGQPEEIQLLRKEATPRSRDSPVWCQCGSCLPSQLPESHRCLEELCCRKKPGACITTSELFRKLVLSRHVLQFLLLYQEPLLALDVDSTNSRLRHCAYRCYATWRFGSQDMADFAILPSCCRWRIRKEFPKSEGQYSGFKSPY
# assay.overview: P2X7 antagonism in human peripheral blood mononuclear cells (PBMCs), IL-1β release
# Assay type: cell-based
# setup.conditions: Table 1, 10 μM compound, LPS 30 ng/ml + Bz-ATP 0.5 mM
measurement.kind: PBMC 10 μM (% control)

Cc1ncsc1-c1nnc2n1C[C@@H]1CC[C@H]2N1C(=O)c1cccc(C(F)(F)F)c1Cl = 0.6 % control
Cc1c(C(=O)N2[C@H]3CC[C@@H]2c2nnc(-c4cscn4)n2C3)cccc1C(F)(F)F = 4.0 % control
O=C(c1ccnc(C(F)(F)F)c1Cl)N1[C@H]2CCC[C@@H]1c1nnc(-c3cccs3)n1C2 (stereo in doubt) = 82.2 % control
O=C(c1cccc(C(F)(F)F)c1Cl)N1[C@H]2CC[C@@H]1c1nnc(-c3ccccn3)n1C2 = −20.0 % control
O=C(c1cccc(C(F)(F)F)c1Cl)N1[C@H]2CC[C@@H]1c1nnc(-c3ncccn3)n1C2 = 10.0 % control

---

# subject.of.test: UniProtKB Q99572
# assay.overview: P2X7 antagonism in human peripheral blood mononuclear cells (PBMCs), IL-1β release
# Format: cell-based
# setup.conditions: P2X7, Table 1, 10 μM compound, LPS 30 ng/ml + Bz-ATP 0.5 mM, read-out: PBMC 10 μM (% control)
Below, each entry is listed with its recorded remaining activity at 10 µM.
measurement.kind: remaining activity at 10 µM (%)

O=C(c1ccnc(C(F)(F)F)c1Cl)N1[C@@H]2CCC[C@H]1c1nnc(-c3cccs3)n1C2 (stereo in doubt) = -1.2
O=C(c1cccc(C(F)(F)F)c1Cl)N1[C@@H]2CCC[C@H]1c1nnc(-c3cscn3)n1C2 (stereo in doubt) = 7.3
O=C(c1cccc(C(F)(F)F)c1Cl)N1[C@H]2CCC[C@@H]1c1nnc(-c3cscn3)n1C2 (stereo in doubt) = 7.3
O=C(c1cccc(C(F)(F)F)c1Cl)N1[C@@H]2CCC[C@H]1c1nnc(-c3ncccn3)n1C2 (stereo in doubt) = 8.9
COc1ccnc(-c2nnc3n2C[C@H]2CCC[C@@H]3N2C(=O)c2cccc(C(F)(F)F)c2Cl)c1 (stereo in doubt) = 4.8
O=C(c1cccc(C(F)(F)F)c1Cl)N1[C@H]2CCC[C@@H]1c1nnc(-c3ccc(F)cc3)n1C2 (stereo in doubt) = -4.4
